target: Phosphatidylinositol 4,5-bisphosphate 3-kinase catalytic subunit alpha isoform (Homo sapiens, UniProt P42336); experiment: Inhibition of PI3Kalpha (unknown origin) using PIP2 as substrate incubated for 1 hr in presence of ATP by Kinase Glo luminescence assay
Sequence (P42336 whole entry, canonical isoform): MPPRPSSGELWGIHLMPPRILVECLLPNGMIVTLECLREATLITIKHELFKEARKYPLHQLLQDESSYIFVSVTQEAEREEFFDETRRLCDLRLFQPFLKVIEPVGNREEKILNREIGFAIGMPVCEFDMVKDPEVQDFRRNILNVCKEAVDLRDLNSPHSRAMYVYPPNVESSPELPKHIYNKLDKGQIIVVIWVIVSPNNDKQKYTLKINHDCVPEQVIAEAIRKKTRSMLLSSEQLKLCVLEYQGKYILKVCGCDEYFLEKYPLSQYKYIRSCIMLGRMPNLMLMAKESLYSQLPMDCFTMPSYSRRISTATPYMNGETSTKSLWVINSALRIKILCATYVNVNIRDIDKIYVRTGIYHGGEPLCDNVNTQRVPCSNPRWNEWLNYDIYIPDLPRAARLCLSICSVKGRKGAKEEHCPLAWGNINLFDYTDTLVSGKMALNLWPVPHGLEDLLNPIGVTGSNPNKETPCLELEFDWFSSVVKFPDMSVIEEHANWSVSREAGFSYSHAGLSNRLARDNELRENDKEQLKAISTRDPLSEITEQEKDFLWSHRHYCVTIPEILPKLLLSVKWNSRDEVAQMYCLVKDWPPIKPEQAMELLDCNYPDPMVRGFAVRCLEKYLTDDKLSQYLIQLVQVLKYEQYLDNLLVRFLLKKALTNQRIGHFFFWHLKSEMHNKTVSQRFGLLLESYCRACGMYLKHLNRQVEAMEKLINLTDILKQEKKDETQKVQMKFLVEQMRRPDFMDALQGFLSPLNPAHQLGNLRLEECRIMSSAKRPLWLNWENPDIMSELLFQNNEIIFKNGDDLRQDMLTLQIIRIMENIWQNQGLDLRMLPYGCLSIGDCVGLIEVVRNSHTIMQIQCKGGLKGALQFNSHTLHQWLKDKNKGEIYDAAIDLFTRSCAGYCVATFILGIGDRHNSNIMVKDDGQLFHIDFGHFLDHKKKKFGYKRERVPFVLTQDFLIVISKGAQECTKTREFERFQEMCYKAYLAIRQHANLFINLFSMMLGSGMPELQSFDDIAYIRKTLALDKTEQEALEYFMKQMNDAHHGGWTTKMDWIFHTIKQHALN
pIC50: −log10 of the molar value.
Quantity Kind: pIC50

Cc1ccc(-c2ccc3ncc4nc(C)n(-c5ccc(F)cc5)c4c3c2)cc1 :: 6.45
Cc1nc2cnc3ccc(-c4cnn(C)c4)cc3c2n1-c1ccc(F)cc1 :: 6.17
Cc1nc2cnc3ccc(-c4cnc5[nH]ccc5c4)cc3c2n1C1CC1 :: 6.30

[P] Cc1nc2cnc3ccc(-c4ccc5[nH]ccc5c4)cc3c2n1-c1ccc(F)cc1
[Q] Cc1nc2cnc3ccc(-c4ccc5ccccc5c4)cc3c2n1-c1ccc(F)cc1
# returns the entry with the larger pIC50; inputs P and Q Mark your answer with the label of the selected entry.
P
(P: 7.53, Q: 6.83)

[1] Cc1nc2cnc3ccc(-c4cnc5[nH]ccc5c4)cc3c2n1-c1ccc(F)nc1
[2] Cc1nc2cnc3ccc(-c4cnc5[nH]ccc5c4)cc3c2n1C
[3] Cc1nc2cnc3ccc(-c4cnc5[nH]ccc5c4)cc3c2n1[C@H](C)c1ccc(F)cc1
[4] Cc1nc2cnc3ccc(-c4cnc5[nH]ccc5c4)cc3c2n1-c1ccc(F)cc1
Put the compounds in ascending order of pIC50. A ranking is expressed here by listing the labels in the requested order.
2, 3, 1, 4

[a] Cc1nc2cnc3ccc(-c4ccc(F)cc4)cc3c2n1-c1ccc(F)cc1
[b] Cc1nc2cnc3ccc(-c4cnc5[nH]ccc5c4)cc3c2n1-c1ccccc1
[c] Cc1nc2cnc3ccc(-c4cnc5[nH]ccc5c4)cc3c2n1-c1ccc(C(F)(F)F)nc1
Order the entries by their reported pIC50, beginning at the minimum. # answer = labels listed in requested order
a, c, b
(a: 6.31, c: 6.98, b: 7.39)

[A] Cc1nc2cnc3ccc(-c4cnc5[nH]ccc5c4)cc3c2n1CC1CCOC1 (stereo not drawn)
[B] Cc1nc2cnc3ccc(-c4cnc5[nH]ccc5c4)cc3c2n1-c1ccc(C(F)(F)F)cc1
[C] Cc1nc2cnc3cc(F)c(-c4cnc5[nH]ccc5c4)cc3c2n1-c1ccc(C(C)(C)C#N)cc1
[D] Cc1nc2cnc3ccc(-c4cnc5[nH]ccc5c4)cc3c2n1[C@H](C)c1ccccc1
[E] CNC(=O)c1ccc(-c2ccc3ncc4nc(C)n(-c5ccc(F)cc5)c4c3c2)cc1
Please give the order of these compounds when sorted by pIC50, largest value leading. List each label, following the requested order.
C, B, D, E, A
